Test system: NCI-H460 lung
experiment-description: NCI-60 one-dose screen, 48 h (100 = growth as untreated, 0 = no growth, -100 = all killed)
test-context: 10 µM unless noted
The panel holds about 83,000 compounds, 20% with a hit somewhere; the sample as a whole holds those more often.
Just a reminder that ties go to criterion not met: only growth strictly below 20% counts as criterion met.

{"columns": ["molecule", "assigned-class"],
 "data": [
  ["COc1cc(-c2cc(-c3ccc(N(C)C)cc3)nc(N3CCC(O)CC3)c2C#N)cc(OC)c1OC", "criterion met"],
  ["CCNc1cc(-c2cccc(OC(F)(F)F)c2)nc2ccc(N3CCCC3)cc12", "criterion met"],
  ["O=C1NCCC12CCN(c1c(Cl)cncc1-c1ccc(O)cc1)CC2", "criterion not met"],
  ["CN[C@]12CC3(C=CC(=O)C=C3)O[C@@]1(Cc1ccc(OC)cc1)N(C)C(=O)N2", "criterion not met"],
  ["CC(=O)[C@@H]1CCC=C2CC[C@]3(C)[C@@H](CC[C@@H]4[C@@]5(C)CCCNC(C)(C)[C@@H]5CC[C@]43C)[C@H]21", "criterion met"],
  ["O=C(Nc1nn(-c2ccc(Cl)cc2Cl)nc1-c1ccccc1)c1ccccc1", "criterion not met"],
  ["CC(=O)n1nc(C(=O)OC(C)C)c2cc(C)c(C)cc21", "criterion not met"],
  ["CO/N=C(/C)c1ccc(NC(=O)CSc2nnc(-c3ccncc3)n2-c2ccccc2)cc1", "criterion met"],
  ["CC(C)c1ccc(COCc2cc(CN3CCCC3)c(O)c3ncccc23)cc1", "criterion met"],
  ["O=C(N/N=C/c1ccc(F)cc1)c1ccc(C(F)(F)F)nc1Nc1cccc(C(F)(F)F)c1", "criterion met"],
  ["CCOC(=O)C#Cc1c(C(=O)OCC)nnn1[C@@H]1O[C@H](CO)[C@H]2OC3(CCCCC3)O[C@H]21", "criterion not met"],
  ["C=C1CC[C@@H]2[C@](C)(COC(C)=O)[C@H](OC(C)=O)CC[C@@]2(C)[C@@H]1CC(Sc1ccccc1)C1=CCOC1=O (some centres undefined)", "criterion not met"],
  ["CCCCCCNC(=O)Oc1ccc(/C(=C(/C)Cc2ccc(OC)cc2)c2ccc(OCCCN(C)C)cc2)cc1", "criterion met"],
  ["O=C1C(Cl)=C(Nc2ccc(O)cc2)C(=O)N1Cc1ccc(Cl)cc1", "criterion not met"],
  ["O=c1oc2ccccc2cc1C1=NN=C(SCc2ccccc2)SC1", "criterion not met"],
  ["COc1ccc(-c2nnc3n(C)c(=O)c4ccccc4n23)cc1N", "criterion met"],
  ["Brc1ccc2[nH]cc(-c3nonc3-c3c[nH]c4ccccc34)c2c1", "criterion met"],
  ["Cc1nnc(-n2c(O)cc(=O)n(-c3ccccc3)c2=S)nc1/C=C/c1ccc(N(C)C)cc1", "criterion not met"],
  ["C=C(C)[C@@H]1CC[C@]2(C(=O)N3CCN(C)CC3)CC[C@]3(C)[C@H](CC[C@@H]4[C@@]5(C)CC(=C/c6ccncc6)/C(=N/O)C(C)(C)[C@@H]5CC[C@]43C)[C@@H]12", "criterion not met"]
]}

###

System: ACHN renal
experiment-description: NCI-60 one-dose screen, 48 h (100 = growth as untreated, 0 = no growth, -100 = all killed)
test-context: 10 µM unless noted
About 83,000 compounds went through this panel and 20% of them were active in at least one assay; those are over-represented in the sample as a whole. Calls of active or inactive are those of the source. The calls were made as follows: active = growth percent below 10; inactive = the rest.

{"columns": ["molecule", "growth"],
 "data": [
  ["Nc1nc2c([nH]1)c1[nH]c3ccccc3c1c1[nH]c3ccccc3c21", "59.1% (inactive)"],
  ["Cn1c(-c2ccc(Br)cc2)c(O)c(=O)c2c(F)cccc21", "37% (inactive)"],
  ["COc1cc(-c2nc3cc(Cl)c(Cl)cc3[nH]2)ccc1OCC(=O)N=Nc1c(O)[nH]c2ccc([N+](=O)[O-])cc12", "104% (inactive)"],
  ["CC1Cc2c(Cl)ncnc2N(C)c2ccc(F)cc21 (stereo not given)", "103% (inactive)"],
  ["CN(C)c1ccc(Nc2cc(-c3cccc(OC(F)(F)F)c3)nc3ccc(N4CCCC4)cc23)cc1", "97.6% (inactive)"],
  ["O=C1c2c(c3c4ccc(Br)cc4oc3c3[nH]c4ccccc4c23)C(=O)N1O", "22.8% (inactive)"],
  ["CCOC(=O)c1[nH]c(=O)c2c(C)nc(-c3ccccc3)cc2c1O", "110% (inactive)"],
  ["CCOC(=O)C1=NN(c2ccccc2)C(=O)/C1=C\\N1C(=O)CC(=O)NC1=S", "101% (inactive)"],
  ["Cc1cccc(Cl)c1NC(=O)c1ccc2nc(NC(=O)NCCN(C)C)sc2c1", "92.9% (inactive)"],
  ["CC(=O)OCc1nc(C#N)c(N(C)C)o1", "98% (inactive)"],
  ["CCCCC[C@@H]1Cc2cc(O)c(C(=O)O)c3c2[C@H](C[C@]2(OC[C@@H](CC(=O)[C@@](C)(CC)C(=O)OC)[C@@H]2C)O3)O1", "97.5% (inactive)"],
  ["CCOC(=O)c1cn2ncnc(Oc3ccc(NC(=O)NC4CCCCC4)c(Cl)c3)c2c1C", "61.5% (inactive)"],
  ["CCn1c(=S)[nH]c2c(=O)n(C)c(=O)n(C)c21", "97.6% (inactive)"],
  ["C[C@H](NC(=O)[C@@H](C)N)[C@H](Oc1ccc2c(cnn2-c2ccc(F)cc2)c1)c1ccc2c(c1)OCCO2", "59% (inactive)"],
  ["S=C1CCSC(=S)N1CCCN1C(=S)CCSC1=S", "44.4% (inactive)"],
  ["CN(CCn1sc(=O)n(Cc2ccccc2)c1=O)Cc1ccc2c(Cl)cc(Cl)c(O)c2n1", "27.8% (inactive)"],
  ["Cn1cc(-c2csc(-c3c[nH]c4ccc(Br)cc34)n2)c2cnccc21", "-98.6% (active)"],
  ["COc1ccc2[nH]cc(-c3nc(-c4c[nH]c5ccncc45)cs3)c2c1", "4.58% (active)"],
  ["O=C(NNc1nccc(Nc2ccc(S(=O)(=O)Nc3ccncc3)cc2)n1)c1ccccc1", "104% (inactive)"],
  ["O=C(Cn1cc(CN2C(=O)c3ccccc3S2(=O)=O)nn1)Nc1nc2ccccc2s1", "90.5% (inactive)"]
]}

###

Test system: MALME-3M melanoma
experiment-description: NCI-60 one-dose screen, 48 h
test-context: 10 µM unless noted
This is part of a sample that, as a whole, favours compounds with a hit. Of some 83,000 tested, about 20% had one in any assay. Active and inactive are the calls of the source. How the source made its calls: active means growth percent below 10; inactive means the rest.
Labels: class 1 (active), class 0 (inactive)

{"columns": ["compound", "assigned-class"],
 "data": [
  ["CC(O)c1cnc(/C=C2\\SC(=S)N(Cc3ccccc3)C2=O)s1 (centres undefined)", "class 0"],
  ["C[C@]12CC[C@@H]3c4ccc(O)c([N+](=O)[O-])c4CC[C@H]3[C@@H]1CCC2=O", "class 0"],
  ["COc1cc(CNS(=O)(=O)c2ccc(C)cc2)ccc1OCc1cn(-c2ccc(Br)cc2)nn1", "class 0"],
  ["COc1cc(-c2nc(SCC(C)C)nc(Nc3cccc4ccccc34)c2C#N)cc(OC)c1OC", "class 0"],
  ["N#Cc1cnc(NCCc2ccncc2)nc1-n1cnc2ccccc21", "class 0"],
  ["CN1CCN(c2ccc(NC(=O)c3nc4ccc5[nH]ncc5c4c4c3CCCC4)cc2C(F)(F)F)CC1", "class 0"],
  ["O=C(/C=C(/C=C/c1cccc2[nH]ccc12)OB(F)F)/C=C/c1cccc2[nH]ccc12", "class 1"],
  ["CN(C)CCNC(=O)c1cccc(-c2cnc3ccc(-c4ccc5c(c4)OCO5)nn23)c1", "class 0"],
  ["CC1=Nc2cnc(Nc3ccc(OCCN4CCCCC4)cc3)nc2Nc2ccccc21", "class 0"],
  ["OCCOCCN(Cc1ccccn1)Cc1cc(I)cc(I)c1O", "class 0"],
  ["O=C1NCCC12CCN(c1c(Cl)cncc1-c1ccc(O)cc1)CC2", "class 0"],
  ["O=C1N(Cc2ccccc2Cl)c2ccccc2C12NN=C(c1cccc(Cl)c1)S2 (centres undefined)", "class 1"],
  ["C=C1C(=O)O[C@H]2[C@H]1CC/C(COC(=O)N[C@H]1C[C@H](O[C@H]3C[C@](O)(C(=O)CO)Cc4c(O)c5c(c(O)c43)C(=O)c3c(OC)cccc3C5=O)O[C@@H](C)[C@H]1O)=C\\CC[C@@]1(C)O[C@@H]21", "class 1"],
  ["CC(=O)n1nc(C(=O)OC(C)C)c2cc(C)c(C)cc21", "class 0"],
  ["CC(C)NC1CCC(Nc2ccnc3cc(Cl)ccc23)CC1 (centres undefined)", "class 0"],
  ["O=C(/C=C/c1ccccc1)c1cccc(OCCCOc2cccc(C(=O)/C=C/c3ccccc3)c2)c1", "class 0"],
  ["CCCCCCCCCCCCCCCCCCOc1ccccc1CC(=O)OCC[N+]1(C)CCCC1", "class 0"],
  ["COc1ccc(-c2nc3c(c(-c4ccccc4)nn3-c3ccccc3)c(-c3ccc(N4CCOCC4)cc3)c2C#N)cc1", "class 0"],
  ["COc1cc(-c2nc3cc(Cl)c(Cl)cc3[nH]2)ccc1OCC(=O)N=Nc1c(O)[nH]c2ccc([N+](=O)[O-])cc12", "class 0"]
]}
